# TESTED SYSTEM: NRAS WT (Homo sapiens (Human), UniProt P01111+P62937)
# Sequence (P01111 whole entry): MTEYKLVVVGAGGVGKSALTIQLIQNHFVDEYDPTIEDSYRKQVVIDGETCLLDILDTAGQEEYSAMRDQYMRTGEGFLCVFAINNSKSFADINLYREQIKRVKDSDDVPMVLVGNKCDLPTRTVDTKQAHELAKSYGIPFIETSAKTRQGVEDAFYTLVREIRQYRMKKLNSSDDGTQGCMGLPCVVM
# Sequence (P62937 whole entry): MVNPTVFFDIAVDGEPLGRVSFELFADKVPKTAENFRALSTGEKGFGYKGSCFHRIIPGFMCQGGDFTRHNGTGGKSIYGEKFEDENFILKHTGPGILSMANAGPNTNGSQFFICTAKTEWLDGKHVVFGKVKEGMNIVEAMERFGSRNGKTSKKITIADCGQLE
# ASSAY EXPLANATION: Ras-Raf (BRAF RBD) disruption / FRET / MOA assay, NRAS WT
# Assay type: biochemical
# MEASUREMENT CONDITIONS: read-out: IC50* NRAS WT FRET data
pIC50: −log10 of the molar value.
Listed here: items and their measured pIC50.

>>> val("C=C(C)C(=O)N1CC(N(C)C(=O)N(C)[C@H](C(=O)N[C@H]2Cc3nc(cs3)-c3ccc4c(c3)c(c(-c3cccnc3[C@H](C)OC)n4CC)CC(C)(C)COC(=O)[C@@H]3CCCN(N3)C2=O)C(C)C)C1 (atropisomer, axis not shown)")
"6.00 to 7.00"
>>> val("C=CC(=O)N1CC[C@H](C(=O)N2CCCCC[C@H]2C(=O)N[C@H]2Cc3nc(cs3)-c3ccc4c(c3)c(c(-c3cccnc3[C@H](C)OC)n4CC)CC(C)(C)COC(=O)[C@@H]3CCCN(N3)C2=O)C1 (atropisomer, axis not shown)")
"5.00 to 6.00"
>>> val("C=CC(=O)N1CCO[C@H]2CN(C(=O)N(C)[C@H](C(=O)N[C@H]3Cc4nc(cs4)-c4ccc5c(c4)c(c(-c4cccnc4[C@H](C)OC)n5CC)CC(C)(C)COC(=O)[C@@H]4CCCN(N4)C3=O)C(C)C)C[C@@H]21 (atropisomer, axis not shown)")
"6.00 to 7.00"
>>> val("C=CC(=O)N1C[C@@H](N(C)C(=O)N(C)[C@H](C(=O)N[C@H]2Cc3nc(cs3)-c3ccc4c(c3)c(c(-c3cccnc3[C@H](C)OC)n4CC)CC(C)(C)COC(=O)[C@@H]3CCCN(N3)C2=O)C(C)C)[C@@H](C)C1 (atropisomer, axis not shown)")
"6.00 to 7.00"
>>> val("C=CC(=O)N1CC[C@H](C(=O)N(C)[C@H](C(=O)N[C@H]2Cc3cc(O)cc(c3)-c3ccc4c(c3)c(c(-c3cccnc3)n4C(C)(C)C#N)CC(C)(C)COC(=O)[C@@H]3CCCN(N3)C2=O)C(C)C)C1")
"6.00 to 7.00"

Given item C=CC(=O)N1CC[C@H](C(=O)N(C)[C@H](C(=O)N[C@H]2Cc3nc(cs3)-c3ccc4c(n3)c(c(-c3cccnc3[C@H](C)OC)n4CC)CC(C)(C)COC(=O)[C@@H]3CCCN(N3)C2=O)C(C)C)C1 , the value recorded as its pIC50 is 5.00 to 6.00

The compound listed as C=CC(=O)Nc1cnc(OC[C@H](C(=O)N[C@H]2Cc3cccc(c3)-c3ccc4c(c3)c(c(-c3cccnc3[C@H](C)OC)n4CC)CC(C)(C)COC(=O)[C@@H]3CCCN(N3)C2=O)C(C)C)n1C (atropisomer, axis not shown) has a reported pIC50 of 6.00 to 7.00

pIC50 for C=CC(=O)N(C)C(=O)N(C)[C@H](C(=O)N[C@H]1Cc2nc(cs2)-c2ccc3c(c2)c(c(-c2cccnc2[C@H](C)OC)n3CC)CC(C)(C)COC(=O)[C@@H]2CCCN(N2)C1=O)C(C)C (atropisomer, axis not shown) is < 5.00

Reported pIC50 ( C=CC(=O)N1CC[C@H](C(=O)N(C)[C@H](C(=O)N[C@H]2CC3=CCCN(C3)c3ccc4c(c3)c(c(-c3cccnc3[C@H](C)OC)n4CC)CC(C)(C)COC(=O)[C@@H]3CCCN(N3)C2=O)C(C)C)C1 (atropisomer, axis not shown) ) = < 5.00

So, CO[C@@H](C)c1ncccc1-c1c2c3cc(ccc3n1CC(F)(F)F)-c1csc(n1)C[C@H](NC(=O)[C@H](C(C)C)N(C)C(=O)N1CCC3(CC1)CN(C(=O)/C=C/CF)C3)C(=O)N1CCC[C@H](N1)C(=O)OCC(C)(C)C2 (atropisomer, axis not shown) ? Its pIC50 was 7.00 to 8.00
